system: tetA promoter (PtetA)-lacZ reporter in E. coli KM3; assay type: cell-based; conditions: Table 6, reverse repressor hits; rimsulfuron, same plate assay format as Table 4
Catalogue of relative β-galactosidase activity, inducer Rs readings, one per entry.
observation-type: relative β-galactosidase activity, inducer Rs

{"molecule": "L1-33: library L1 reverse repressor hit (SEQ ID NO: 1206-1213) (protein, rSuR L1-33) MGSRLDKSKVINSALELLNEVGIEGLTTRKLAQKLGVEQPTLYWHVKNKRALLDALAIEMLDRHATHFCPLEGESWQDFLRNNAKSMRCALLSHRDGAKVQLGTAATEKQYETLENKLAFLCQQGFSLENALYAHSAVTQFTLGCVLRDQEGQVAKEERETPTTDSMPPLLRQARELRDHQGAEPAFLFGLELIICGLEKQLKCESGS", "readout-value": 10.32}
{"molecule": "L1-36: library L1 reverse repressor hit (SEQ ID NO: 1206-1213) (protein, rSuR L1-36) MGSRLDKSKVINSALELLNEVGIEGLTTRKLAQKLGVEQPTLYWHVKNKRALLDALAIEMADRHHTHFCPLEGESWQDFLRNAAKSMRCALLSHRDGAKVRLGTAWTEKQYETHENVLAFLCQQGFSLENALYALKAVSGFTLGCVLKDQEMQVAKEERETPTTDSMPPLLRQATELVDHQGAEPAFLFGLELIICGLEKQLKCESGS", "readout-value": 1.84}
